Data origin: ChEMBL document CHEMBL3525960

Each entry below carries its reported dose excreted at 24 h.
Assay: Drug excretion in Sprague-Dawley rat urine treated with luteolin at 6.5 mg/kg, iv after 24 hrs co-treated with COMT inhibitor entacapone
Format: ADME, organism-based
Parameters: dose 6.5 mg/kg, route intravenous
Details: read-out: Drug excretion
State just the number; it will be interpreted in %.

COc1ccc(-c2cc(=O)c3c(O)cc(O)cc3o2)cc1O [DIOSMETIN] :: 0.254

Shifting focus to the compound that follows.
Field request: dose excreted at 24 h | item: COc1cc(-c2cc(=O)c3c(O)cc(O)cc3o2)ccc1O [CHRYSOERIOL] 0.451

* * *

Experiment: Half life in Sprague-Dawley rat at 6.5 mg/kg, iv
Format: ADME, organism-based
Design: dose 6.5 mg/kg, route intravenous
Conditions: in vivo
VALUE_KIND: half-life (h)
Hi! Could you send only the number? It should be in h, unit omitted.

If you can, please state the reported half-life value of `O=c1cc(-c2ccc(O)c(O)c2)oc2cc(O)cc(O)c12` . 3.2

* * *

Assay: Drug excretion in Sprague-Dawley rat urine at 6.5 mg/kg, iv after 24 hrs co-treated with COMT inhibitor entacapone
Assay type: ADME, organism-based
Design: dose 6.5 mg/kg, route intravenous
Settings: read-out: Drug excretion
VALUE_KIND: dose excreted at 24 h
Answer format: value, then unit.

So what does the record say about dose excreted at 24 h for `O=c1cc(-c2ccc(O)c(O)c2)oc2cc(O)cc(O)c12` ? 7.32%

* * *

Assay: AUC (0 to infinity) in Sprague-Dawley rat at 6.5 mg/kg, iv
Assay type: ADME, organism-based
Parameters: time infinity, dose 6.5 mg/kg, route intravenous
Settings: plasma
VALUE_KIND: AUC(0-inf) (ng·h/mL)
Hi! Could you send only the number? It should be in ng·h/mL, unit omitted.

Name the recorded AUC(0-inf) for `O=c1cc(-c2ccc(O)c(O)c2)oc2cc(O)cc(O)c12` . 8180

* * *

Experiment: Mean residence time (0 to infinity) in Sprague-Dawley rat treated with luteolin at 6.5 mg/kg, iv
Format: ADME, organism-based
Parameters: dose 6.5 mg/kg, route intravenous
Settings: in vivo
VALUE_KIND: MRT inf (h)
Form entry: value (h) — number only.

COc1ccc(-c2cc(=O)c3c(O)cc(O)cc3o2)cc1O :: 0.767

Reported MRT inf, molecule `COc1cc(-c2cc(=O)c3c(O)cc(O)cc3o2)ccc1O` : ____ 1.76

* * *

Experiment: Half life in Sprague-Dawley rat at 6.5 mg/kg, iv co-treated with COMT inhibitor entacapone
Assay type: ADME, organism-based
Set-up: dose 6.5 mg/kg, route intravenous
Details: in vivo
VALUE_KIND: half-life (h)
Reply with just the number (in h).

Name the reported half-life value associated with the compound O=c1cc(-c2ccc(O)c(O)c2)oc2cc(O)cc(O)c12 [LUTEOLIN] 3.31

* * *

compounds and their reported half-life
Test: Half life in Sprague-Dawley rat treated with luteolin at 6.5 mg/kg, iv
Assay type: ADME, organism-based
Design: dose 6.5 mg/kg, route intravenous
Conditions: in vivo
I'd appreciate it if you included the unit after the number.

COc1cc(-c2cc(=O)c3c(O)cc(O)cc3o2)ccc1O :: 1.57 h

Here's the next entry for you.
Consider the compound `COc1ccc(-c2cc(=O)c3c(O)cc(O)cc3o2)cc1O` and give its measured half-life. 0.514 h

* * *

Assay: AUC (0 to t) in Sprague-Dawley rat treated with luteolin at 6.5 mg/kg, iv
Format: ADME, organism-based
Design: dose 6.5 mg/kg, route intravenous
Details: plasma
Recorded AUC(0-t) values for a group of molecules are listed next.
Supply the numeric figure in ng·h/mL, leaving out any unit text.

COc1ccc(-c2cc(=O)c3c(O)cc(O)cc3o2)cc1O [DIOSMETIN] :: 427

Please find the next molecule below.
Name the reported AUC(0-t) value associated with the molecule COc1cc(-c2cc(=O)c3c(O)cc(O)cc3o2)ccc1O [CHRYSOERIOL] 2090

* * *

Experiment: Mean residence time (0 to t) in Sprague-Dawley rat at 6.5 mg/kg, iv co-treated with COMT inhibitor entacapone
Assay type: ADME, organism-based
Parameters: dose 6.5 mg/kg, route intravenous
Conditions: in vivo
VALUE_KIND: MRT last (h)
Express it in h; write the number only.

# get_value(readout='MRT last', item= O=c1cc(-c2ccc(O)c(O)c2)oc2cc(O)cc(O)c12 [LUTEOLIN] ) 1.65

* * *

Assay: Apparent permeability in human Caco2 cells
Type: ADME, cell-based
Conditions: caco-2
VALUE_KIND: Papp (×10⁻⁶ cm/s)
Please respond with the number in ×10⁻⁶ cm/s and leave the unit unwritten.

# Papp lookup, item `O=c1cc(-c2ccc(O)c(O)c2)oc2cc(O)cc(O)c12` 5.8

* * *

Assay: Mean residence time (0 to t) in Sprague-Dawley rat at 6.5 mg/kg, iv
Assay type: ADME, organism-based
Set-up: dose 6.5 mg/kg, route intravenous
Settings: in vivo
VALUE_KIND: MRT last (h)
Respond with the bare value in h.

What MRT last value was documented for this molecule, `O=c1cc(-c2ccc(O)c(O)c2)oc2cc(O)cc(O)c12` ? 1.41

* * *

Test: Volume of distribution in Sprague-Dawley rat at 6.5 mg/kg, iv co-treated with COMT inhibitor entacapone
Format: ADME, organism-based
Design: dose 6.5 mg/kg, route intravenous
Settings: in vivo
VALUE_KIND: Vd
Answer by giving the amount and then stating its unit.

Fill in: Vd of `O=c1cc(-c2ccc(O)c(O)c2)oc2cc(O)cc(O)c12` is ___ 2.57 L/kg

* * *

Assay: Mean residence time (0 to infinity) in Sprague-Dawley rat at 6.5 mg/kg, iv co-treated with COMT inhibitor entacapone
Type: ADME, organism-based
Design: dose 6.5 mg/kg, route intravenous
Details: in vivo
VALUE_KIND: MRT inf (h)
# number only, unit h dropped from output

Given `O=c1cc(-c2ccc(O)c(O)c2)oc2cc(O)cc(O)c12` , state its recorded MRT inf. 2.68

* * *

Assay: Clearance in Sprague-Dawley rat at 6.5 mg/kg, iv
Type: ADME, organism-based
Design: dose 6.5 mg/kg, route intravenous
Conditions: in vivo
VALUE_KIND: clearance (mL/min/kg)
Numbers only here, please. The scale is mL/min/kg.

Param item = `O=c1cc(-c2ccc(O)c(O)c2)oc2cc(O)cc(O)c12` ; retrieve measured clearance. 13.4

* * *

Experiment: Cmax in Sprague-Dawley rat treated with luteolin at 6.5 mg/kg, iv
Format: ADME, organism-based
Parameters: dose 6.5 mg/kg, route intravenous
Conditions: in vivo
Below, each entry is listed alongside its reported Cmax.
Please respond with the number in ng/mL and leave the unit unwritten.

COc1ccc(-c2cc(=O)c3c(O)cc(O)cc3o2)cc1O [DIOSMETIN] :: 560

// next entry
Fill in: Cmax of COc1cc(-c2cc(=O)c3c(O)cc(O)cc3o2)ccc1O [CHRYSOERIOL] is ___ 2060

* * *

Assay: Volume of distribution in Sprague-Dawley rat at 6.5 mg/kg, iv
Assay type: ADME, organism-based
Design: dose 6.5 mg/kg, route intravenous
Conditions: in vivo
VALUE_KIND: Vd (L/kg)
Unit L/kg implied. Number only.

Which Vd is listed for O=c1cc(-c2ccc(O)c(O)c2)oc2cc(O)cc(O)c12 [LUTEOLIN] ? 3.74

* * *

Test: Drug excretion in Sprague-Dawley rat urine treated with luteolin at 6.5 mg/kg, iv after 24 hrs
Format: ADME, organism-based
Parameters: dose 6.5 mg/kg, route intravenous
Conditions: read-out: Drug excretion
# dose excreted at 24 h per entry
Value expressed in %; do not type the unit.

COc1ccc(-c2cc(=O)c3c(O)cc(O)cc3o2)cc1O :: 1.22

Quick one: dose excreted at 24 h of `COc1cc(-c2cc(=O)c3c(O)cc(O)cc3o2)ccc1O` ? 1.92

* * *

Test: Mean residence time (0 to infinity) in Sprague-Dawley rat at 6.5 mg/kg, iv
Assay type: ADME, organism-based
Set-up: dose 6.5 mg/kg, route intravenous
Conditions: in vivo
VALUE_KIND: MRT inf (h)
Numeric only. Scale: h

Requested field: MRT inf. Item: `O=c1cc(-c2ccc(O)c(O)c2)oc2cc(O)cc(O)c12` 2.32
